Kindly supply the reported Log2 (fold change) values for the records listed here.
test system: HBEGF locus; assay type: cell-based, human; conditions: high-throughput screen of dXR repression of the HBEGF gene; change in abundance of each domain in the library before and after diphtheria toxin selection
Numbers only.

DOMAIN_3463 (protein, listed as Hylobates sp.) MMTAVSLTTRPQESVAFEDVAVYFTAKEWDIMVPAERALYRDVMLENYEAVAFVVPPTSKPALVSHLEQGKESCFTRPQGV
3.5462

Query block: Endpoint output: Log2 (fold change) of DOMAIN_2629 (protein, listed as Pongo sp.) MFPPARGKELLSFEDVAMYFTREEWGHLSWGQKDLYRDVMLENYRNMVLLGFQFPKPEVICQLENWDEQWILDLPRAGNRK . Value?
Result block: 3.092
